Test: in vitro
Details: human, HEK293T cells
Description: Cytotoxicity against HEK293T cells assessed as cell viability at 5.6 uM by CellTiter-Glo assay relative to control
Non-standard residues stand in square brackets, D forms with d. Residues, ends and D or L forms follow the SMILES beside them. *: point of attachment. X1 = O=C(OCCCS*)Oc1ccc2nc(C3=N[C@@H](C(=O)O)CS3)sc2c1; Mpa = O=C(O)CCS
Exercise: state measured viability at 5.6 µM for each of the compounds provided.
# value in %; strip the unit string

-- ask Need viability at 5.6 µM of CC(C)C[C@H](NC(=O)[C@H](CCCCN)NC(=O)[C@H](Cc1c[nH]c2ccccc12)NC(=O)[C@H](CCCNC(=N)N)NC(=O)[C@H](CCCCN)NC(=O)[C@H](CC(C)C)NC(=O)[C@@H](NC(=O)[C@H](CCCNC(=N)N)NC(=O)CCSSCCCOC(=O)Oc1ccc2nc(C3=N[C@@H](C(=O)O)CS3)sc2c1)C(C)C)C(=O)N[C@@H](Cc1ccccc1)C(=O)N[C@@H](CC(N)=O)C(N)=O ([Mpa](X1)RVLKRWKLFN-NH2) , thanks.
-- reply 94.4

-- ask Need viability at 5.6 µM of CC(C)C[C@H](NC(=O)CCSSCCCOC(=O)Oc1ccc2nc(C3=N[C@@H](C(=O)O)CS3)sc2c1)C(=O)N[C@@H](CCCCN)C(=O)N[C@H](C(=O)N[C@@H](CCCNC(=N)N)C(=O)N[C@H](C(=O)N[C@@H](CC(C)C)C(=O)N[C@@H](CCCCN)C(=O)N[C@@H](CCCNC(=N)N)C(=O)N[C@@H](Cc1c[nH]c2ccccc12)C(=O)N[C@@H](CCCCN)C(N)=O)C(C)C)[C@@H](C)O ([Mpa](X1)LKTRVLKRWK-NH2) , thanks.
-- reply 80

-- ask Need viability at 5.6 µM of CC(C)C[C@H](NC(=O)[C@H](CCCCN)NC(=O)[C@H](Cc1c[nH]c2ccccc12)NC(=O)[C@H](CCCNC(=N)N)NC(=O)CCSSCCCOC(=O)Oc1ccc2nc(C3=N[C@@H](C(=O)O)CS3)sc2c1)C(=O)N[C@@H](Cc1ccccc1)C(=O)N[C@@H](CC(N)=O)C(=O)N[C@@H](CCCCN)C(=O)N[C@@H](CCC(N)=O)C(=O)N[C@@H](CCC(=O)O)C(=O)N[C@@H](Cc1c[nH]c2ccccc12)C(N)=O ([Mpa](X1)RWKLFNKQEW-NH2) , thanks.
-- reply 93.6

-- ask Need viability at 5.6 µM of CC(C)C[C@H](NC(=O)[C@H](CO)NC(=O)CNC(=O)CCSSCCCOC(=O)Oc1ccc2nc(C3=N[C@@H](C(=O)O)CS3)sc2c1)C(=O)N[C@@H](CCCCN)C(=O)N[C@H](C(=O)N[C@@H](CCCNC(=N)N)C(=O)N[C@H](C(=O)N[C@@H](CC(C)C)C(=O)N[C@@H](CCCCN)C(=O)N[C@@H](CCCNC(=N)N)C(N)=O)C(C)C)[C@@H](C)O ([Mpa](X1)GSLKTRVLKR-NH2) , thanks.
-- reply 100

-- ask Need viability at 5.6 µM of CC(C)C[C@H](NC(=O)[C@H](CCCCN)NC(=O)[C@H](Cc1c[nH]c2ccccc12)NC(=O)[C@H](CCCNC(=N)N)NC(=O)[C@H](CCCCN)NC(=O)CCSSCCCOC(=O)Oc1ccc2nc(C3=N[C@@H](C(=O)O)CS3)sc2c1)C(=O)N[C@@H](Cc1ccccc1)C(=O)N[C@@H](CC(N)=O)C(=O)N[C@@H](CCCCN)C(=O)N[C@@H](CCC(N)=O)C(=O)N[C@@H](CCC(=O)O)C(N)=O ([Mpa](X1)KRWKLFNKQE-NH2) , thanks.
-- reply 106

-- ask Need viability at 5.6 µM of CC(C)C[C@H](NC(=O)[C@H](CCCCN)NC(=O)[C@H](Cc1c[nH]c2ccccc12)NC(=O)[C@H](CCCNC(=N)N)NC(=O)[C@H](CCCCN)NC(=O)[C@H](CC(C)C)NC(=O)[C@@H](NC(=O)[C@H](CCCNC(=N)N)NC(=O)[C@@H](NC(=O)[C@H](CCCCN)NC(=O)CCSSCCCOC(=O)Oc1ccc2nc(C3=N[C@@H](C(=O)O)CS3)sc2c1)[C@@H](C)O)C(C)C)C(N)=O ([Mpa](X1)KTRVLKRWKL-NH2) , thanks.
-- reply 85.3
